Biological target: T1, Factor XII (FXII, zymogen) (human, UniProt P00748 20-615)
T1 sequence: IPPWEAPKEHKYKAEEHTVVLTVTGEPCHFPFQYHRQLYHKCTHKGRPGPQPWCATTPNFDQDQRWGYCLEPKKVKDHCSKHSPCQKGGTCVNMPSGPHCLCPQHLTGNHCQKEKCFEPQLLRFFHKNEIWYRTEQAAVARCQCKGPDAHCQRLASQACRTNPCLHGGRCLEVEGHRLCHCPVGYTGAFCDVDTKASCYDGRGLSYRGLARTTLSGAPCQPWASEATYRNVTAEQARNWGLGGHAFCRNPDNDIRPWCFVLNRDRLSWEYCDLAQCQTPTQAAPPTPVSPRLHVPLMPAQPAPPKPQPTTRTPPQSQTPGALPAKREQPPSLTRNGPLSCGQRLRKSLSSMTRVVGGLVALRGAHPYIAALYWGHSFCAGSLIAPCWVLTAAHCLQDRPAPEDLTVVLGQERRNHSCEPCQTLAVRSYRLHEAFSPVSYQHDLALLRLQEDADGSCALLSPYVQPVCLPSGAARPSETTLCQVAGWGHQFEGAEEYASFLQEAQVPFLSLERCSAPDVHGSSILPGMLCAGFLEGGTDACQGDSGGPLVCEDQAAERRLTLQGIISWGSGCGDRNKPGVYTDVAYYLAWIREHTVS
Experiment: double-filter nitrocellulose binding
Reported Metric: Kd (nM)
# number only, unit nM dropped from output

What value of Kd has been reported for the following binder? R4cXII-1t (XNA, all C and U are 2'-fluoro; A and G ribo) RNA: GGCUCGGCUGCCAGCAGGUCACGAGUCGCAGCGACUCGCUGAGGAUCCGAG
12.9
